B1: CSTF3 (parent)
chain: YVPEKVKKAEKKLEENPYDLDAWS

Variants of: B1
Assay: protein stability index of a GFP-peptide fusion (GPS, HEK-293T) (PSI 1-6); higher = more stable;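 also: lentivirally expressed fusions sorted by FACS into six bins by GFP to DsRed ratio, PSI derived from sequencing read proportions per bin multiplied by bin number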
Conditions: c terminus: a fixed tail appended
variants and their reported protein stability index
Respond with the number and no other words.

// below: answered variants
                     item_sequence  data_value
0  YVPEKVKKAEKKLEENPVDLDAWS [Y18V]        1.45
1  YVPEKVKKAEKKLEENPYALDAWS [D19A]         2.2
2  YVPEKVKKAEKKLEENPYDLDKWS [A22K]        1.36
3   YVCEKVKKAEKKLEENPYDLDAWS [P3C]        2.46
4   YVPEQVKKAEKKLEENPYDLDAWS [K5Q]        2.73

[Q] For YAPEKVKKAEKKLEENPYDLDAWS [V2A] , what is its reported protein stability index?
[A] 1.92

[Q] Now this one: YVPEWVKKAEKKLEENPYDLDAWS [K5W]
[A] 2.45

[Q] Now this one: YVPEKVKKAEKKLEERPYDLDAWS [N16R]
[A] 2.64

Taken from the supplement of paper PMC10567573.
